Test system: P94_40
Assay: qHTS profiling for inhibitors of Plasmodium falciparum proliferation (AID 504749); note: nearly all actives have a fitted effect of over 60% in size
Settings: P. falciparum in erythrocytes, SYBR Green DNA, 72 h; series mostly up to 28.7 µM
Results filed as inconclusive are left out. Calls of active or inactive are those of the source. Calls come from the whole dose curve; as a rule, active = well fitted inhibition curve with a large enough effect; inconclusive = small, poorly fitted or top-dose-only effect; inactive = flat fitted curve, though single readings scatter.
// allowed return values: t for active, f for inactive

Please review the entries below; each comes with its answer.
compound	tgt	classification
O=C1CN(O)C(c2ccccc2)=c2cc(Cl)ccc2=N1	P94_40	f
O=CC=O	P94_40	f
CCNC(C)Cc1cccc(C(F)(F)F)c1 (stereo unspecified)	P94_40	f
C/C(=C\c1csc(C)n1)[C@@H]1C[C@@H]2O[C@]2(C)CCC[C@H](C)[C@H](O)[C@@H](C)C(=O)C(C)(C)[C@@H](O)CC(=O)O1	P94_40	t
CCC1(c2ccccc2)C(=O)NC(=O)N(C)C1=O (stereo unspecified)	P94_40	f

Here is another compound to look at.
Query :: What did the test return for O=c1[nH]c(=O)n(Cl)c(=O)n1Cl ?
Result :: f
